Data origin: ChEMBL document CHEMBL2176934

TEST SYSTEM: Lysophosphatidic acid receptor 1 (Homo sapiens, UniProt Q92633)
Sequence (Q92633 whole entry): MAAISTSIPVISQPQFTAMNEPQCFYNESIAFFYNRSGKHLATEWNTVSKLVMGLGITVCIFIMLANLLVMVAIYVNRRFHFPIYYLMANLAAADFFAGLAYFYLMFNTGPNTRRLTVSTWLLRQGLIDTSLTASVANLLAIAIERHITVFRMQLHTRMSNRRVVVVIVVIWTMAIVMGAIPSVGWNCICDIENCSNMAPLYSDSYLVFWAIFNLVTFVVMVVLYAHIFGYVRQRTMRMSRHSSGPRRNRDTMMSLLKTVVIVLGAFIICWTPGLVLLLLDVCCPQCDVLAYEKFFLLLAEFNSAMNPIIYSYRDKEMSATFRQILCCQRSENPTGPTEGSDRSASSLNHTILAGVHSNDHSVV
MEASUREMENT DESCRIPTION: Antagonist activity at human recombinant LPA1 expressed in chem-1 cells assessed as inhibition of LPA-induced intracellular calcium mobilization incubated for 30 mins prior to LPA-challenge measured over 100 secs by FLIPR assay
METRIC: IC50 (nM)

Here is how some compounds turned out for IC50.
[[record]]
structure = "CCc1nnn(-c2ccc(-c3ccc(C4(C(=O)O)CC4)cc3)cc2)c1NC(=O)O[C@H](C)c1ccccc1"
test_system = "Lysophosphatidic acid receptor 1 (Homo sapiens, UniProt Q92633)"
metric = "IC50"
result_units = "nM"
number = 42

[[record]]
structure = "Cc1nnn(-c2ccc(-c3ccc(C4(c5nnn[nH]5)CC4)cc3)cc2)c1NC(=O)O[C@H](C)c1ccccc1"
test_system = "Lysophosphatidic acid receptor 1 (Homo sapiens, UniProt Q92633)"
metric = "IC50"
result_units = "nM"
number = 23

[[record]]
structure = "C[C@@H](OC(=O)Nc1c(-c2ccc(-c3ccc(C4(C(=O)NS(C)(=O)=O)CC4)cc3)cc2)nnn1C)c1cccc(C(F)(F)F)c1"
test_system = "Lysophosphatidic acid receptor 1 (Homo sapiens, UniProt Q92633)"
metric = "IC50"
result_units = "nM"
number = 24

[[record]]
structure = "Cc1nnn(-c2ccc(-c3ccc(C4(C(=O)NS(C)(=O)=O)CC4)cc3)cc2)c1NC(=O)O[C@H](C)c1ccccc1"
test_system = "Lysophosphatidic acid receptor 1 (Homo sapiens, UniProt Q92633)"
metric = "IC50"
result_units = "nM"
number = 32

[[record]]
structure = "C[C@@H](OC(=O)Nc1c(-c2ccc(-c3ccc(C4(C(=O)O)CC4)cc3)cc2)nnn1C)c1cccc(C(F)(F)F)c1"
test_system = "Lysophosphatidic acid receptor 1 (Homo sapiens, UniProt Q92633)"
metric = "IC50"
result_units = "nM"
number = 17


(A) C[C@@H](OC(=O)Nc1c(-c2ccc(-c3ccc(C4(C(=O)O)CC4)cc3)cc2)cnn1C)c1cccc(C(F)(F)F)c1
(B) C[C@@H](OC(=O)Nc1c(-c2ccc(-c3ccc(C4(C(=O)O)CC4)cc3)cc2)cnn1C)c1ccccc1
## Task I'm curious whether A or B has the smaller IC50 number. Which is it? API: response body contains the label of the selected item.
## Result B
